Test system: 817829-284-R-J1-PDC complex spheroids, viability;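 note: spheroids exposed to agents for 7 days before readout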
Experiment Description: Anticancer human tumor 817829-284-R-J1-PDC patient-derived colon adenocarcinoma cell line growth inhibition [GQUAD]; active = viability on the fitted dose curve at most 10% of control; inactive = the rest
Condition Notes: second compound 1 µM; first compound 1 µM
Labels: active, inactive

Compound | Label Value
CC(C)n1c(=O)n(C)c2cnc3cc(F)c(-c4ccc(OCCCN5CCCCC5)nc4)cc3c21 + Cc1[nH]c2ccc(F)cc2c1-c1nc2c3cccnc3c3ncccc3c2[nH]1 | inactive
Nc1ccn(C2OC(CO)C(O)C2(F)F)c(=O)n1 (stereo not given) + Cc1cnc(CNC(=O)c2c(=O)c3ccc(N4CCCN(C)CC4)nc3n3c2sc2ccccc23)cn1 | active
CC(C)(O)C1CCC(Nc2ccc3ncc(-c4cccc(C(F)(F)F)c4)n3n2)CC1 (stereo not given) + CN(C)c1ccc(Nc2c3ccc(NC(=O)CCN4CCCC4)cc3nc3cc(NC(=O)CCN4CCCC4)ccc23)cc1 | inactive
Cc1cccc(N(C)C(=O)C2C(O)CCN2c2nc(C)cc(C(F)(F)F)c2C#N)c1 (stereo not given) + Cc1cnc(CNC(=O)c2c(=O)c3ccc(N4CCCN(C)CC4)nc3n3c2sc2ccccc23)cn1 | inactive
CC(C)n1c(=O)n(C)c2cnc3cc(F)c(-c4ccc(OCCCN5CCCCC5)nc4)cc3c21 + CN(C)c1ccc(Nc2c3ccc(NC(=O)CCN4CCCC4)cc3nc3cc(NC(=O)CCN4CCCC4)ccc23)cc1 | inactive
